This collection of values is drawn from patent US20260207704A1.

Listed next: entries and their corresponding pIC50.
biological target: beta-catenin (human); assay: fluorescence polarization
Sequence (B6V8E6 146-665 limits assumed): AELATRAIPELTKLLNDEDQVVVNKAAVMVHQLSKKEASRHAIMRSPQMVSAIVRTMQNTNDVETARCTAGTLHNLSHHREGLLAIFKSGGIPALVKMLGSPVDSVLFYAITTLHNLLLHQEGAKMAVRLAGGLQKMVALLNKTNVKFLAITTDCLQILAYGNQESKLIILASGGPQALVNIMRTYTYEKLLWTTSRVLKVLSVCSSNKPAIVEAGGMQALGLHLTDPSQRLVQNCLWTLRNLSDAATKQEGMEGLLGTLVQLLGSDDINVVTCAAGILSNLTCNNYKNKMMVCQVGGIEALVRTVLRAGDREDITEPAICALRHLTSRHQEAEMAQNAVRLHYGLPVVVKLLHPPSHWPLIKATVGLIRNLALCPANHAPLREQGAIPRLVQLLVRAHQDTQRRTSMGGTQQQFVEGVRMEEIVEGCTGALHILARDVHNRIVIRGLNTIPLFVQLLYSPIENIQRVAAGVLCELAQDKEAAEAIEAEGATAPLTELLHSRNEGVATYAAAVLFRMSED
pIC50: −log10 of the molar value. *1 amine or outer side, *2 acyl side, *3 side chain or, on linkers, in order; H or OH if unused. Bridges are numbered along the chain shown (N, C = ends). Primed or numbered codes have the meaning given here. [ ]: non-standard residue; d: D form. PyrS2″ = (S)-3-amino-1-((pent-4-en-1-yloxy)carbonyl)pyrrolidine-3-carboxylic acid (olefin stapling residue), C=CCCCOC(=O)N1CC[C@@](N[*:1])(C(=O)[*:2])C1; PyrS2 = (S)-3-amino-1-((pent-4-en-1-yloxy)carbonyl)pyrrolidine-3-carboxylic acid, olefin staple residue, C=CCCCOC(=O)N1CC[C@@](N[*:1])(C(=O)[*:2])C1; PyrS2(3) = (S)-3-amino-1-((pent-4-en-1-yloxy)carbonyl)pyrrolidine-3-carboxylic acid, olefin residue, C=CCCCOC(=O)N1CC[C@@](N[*:1])(C(=O)[*:2])C1; B5(3) = 2-amino-2-(pent-4-en-1-yl)hept-6-enoic acid, two olefin arms, C=CCCCC(CCCC=C)(N[*:1])C(=O)[*:2]; 2F3MeF(3) = aromatic amino acid residue, Cc1cccc(C[C@H](N[*:1])C(=O)[*:2])c1F; 2F3MeF″ = aromatic residue, Cc1cccc(C[C@H](N[*:1])C(=O)[*:2])c1F; Phe(3-COOH) = N[C@@H](Cc1cccc(C(=O)O)c1)C(=O)O; 2F3MeF = Cc1cccc(C[C@H](N[*:1])C(=O)[*:2])c1F; Bta = N[C@@H](Cc1csc2ccccc12)C(=O)O; αAllylPro = C=CC[C@@]1(C(=O)O)CCCN1; BztA = aromatic amino acid residue; tBuAla = CC(C)(C)C[C@H](N)C(=O)O; 3Thi = N[C@@H](Cc1ccsc1)C(=O)O; Cha = N[C@@H](CC1CCCCC1)C(=O)O; PyrS2(4) = not defined here; GlnR = not defined here; PL3 = not defined here; B5 = not defined here; Aib = CC(C)(N)C(=O)O
OBSERVED_PROPERTY: pIC50

INSERT INTO measurements (binder, measured_result) VALUES
  ('Ac-[αAllylPro]D[tBuAla][B5(3)]D[Phe(3-COOH)]AAFK[PyrS2(3)][2F3MeF″][Bta][GlnR]-NH2 (bridge 10-14; not fully specified (bridges); printed as Ac-PL3-Asp-Npg-B5-Asp-3COOHF-Ala-Ala-Phe-Lys*3-PyrS2-2F3MeF-BztA-GlnR*3-NH2; reading uncertain) [I-55]', '> 7.30'),
  ('Ac-[PL3]D[Cha][B5]D[Phe(3-COOH)][Cha]AFK[PyrS2(4)][2F3MeF][Bta][GlnR]A-NH2 (staple 1-4; bridge 10-14; not fully specified (residue 10); printed as Ac-PL3-Asp-Cha-B5-Asp-3COOHF-Cha-Ala-Phe-Lys*3-PyrS2-2F3MeF-BztA-GlnR*3-Ala-NH2; reading uncertain; also: PyrS2 tied into a staple, partner not placed) [I-103]', '> 7.30'),
  ('Ac-[αAllylPro]D[tBuAla][B5]D[Phe(3-COOH)][Aib]AFK[PyrS2][3Thi][Bta][GlnR]A-NH2 (staple 1-4, 4-11; lactam 10-14; not fully specified; printed as Ac-PL3-Asp-Npg-B5-Asp-3COOHF-Aib-Ala-Phe-Lys*3-PyrS2-3Thi-BztA-GlnR*3-Ala-NH2; reading uncertain) [I-66]', '> 7.30'),
  ('Ac-[PL3]D[Cha][B5]D[Phe(3-COOH)]AAFK[PyrS2″][2F3MeF(3)][BztA][GlnR]A-NH2 (staple 1-4 (inferred); bridge 10-14; not fully specified (residue 10, bridges); printed as Ac-PL3-Asp-Cha-B5-Asp-3COOHF-Ala-Ala-Phe-Lys*3-PyrS2-2F3MeF-BztA-GlnR*3-Ala-NH2; reading uncertain; also: Lys10 and GlnR14 marked *3) [I-97]', '> 7.30'),
  ('Ac-[αAllylPro]D[tBuAla][B5]D[Phe(3-COOH)][GlnR](29N2spiroundecane)AFL[PyrS2][2F3MeF][Bta][GlnR]A-NH2 (staple 1-4, 4-11 (inferred); not fully specified; printed as Ac-PL3-Asp-Npg-B5-Asp-3COOHF-[29N2spiroundecane]GlnR-Ala-Phe-Leu-PyrS2-2F3MeF-BztA-GlnR-Ala-NH2; reading uncertain; also: staple C=C reduced to CH2-CH2) [I-135]', '< 6.00');
